# assay notes: Oral pharmacokinetics in mouse
# Assay type: in vivo, BALB/c mice
# test settings: female, BALB/c, plasma, 20 umol/kg, oral dose 20 μmol/kg, mean values
measurement name: Cmax (nM)
Just the number in nM, nothing appended.

So, CO[C@H]1COCC[C@H]1NC1CCN(C(=O)c2ncnc(NC[C@H]3CCC[C@@H](c4ccc(C)cc4)O3)c2C)CC1 [compound I] ? Its Cmax was 974

---

# assay notes: Intravenous pharmacokinetics in rat
# Assay type: in vivo, Wistar(Han) rats
# test settings: male, Wistar(Han), plasma, 5 umol/kg, IV dose 5 μmol/kg, mean values, read-out: Vss
measurement name: Vd

So, CO[C@H]1COCC[C@H]1NC1CCN(C(=O)c2ncnc(NC[C@H]3CCC[C@@H](c4ccc(C)cc4)O3)c2C)CC1 ? Its Vd was 5.04 L/kg
